As shown below, each of these compounds has a reported IC50 value.
- Target or system: NRAS G12C (Homo sapiens (Human), UniProt P01111+P62937, G12C)
- Sequence (P01111 whole entry G12C): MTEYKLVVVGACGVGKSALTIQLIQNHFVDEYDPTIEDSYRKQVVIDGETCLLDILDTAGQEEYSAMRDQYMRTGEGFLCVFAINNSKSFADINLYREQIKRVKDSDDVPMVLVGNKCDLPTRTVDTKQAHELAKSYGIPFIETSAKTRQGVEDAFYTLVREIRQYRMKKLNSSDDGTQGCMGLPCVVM
- Sequence (P62937 whole entry): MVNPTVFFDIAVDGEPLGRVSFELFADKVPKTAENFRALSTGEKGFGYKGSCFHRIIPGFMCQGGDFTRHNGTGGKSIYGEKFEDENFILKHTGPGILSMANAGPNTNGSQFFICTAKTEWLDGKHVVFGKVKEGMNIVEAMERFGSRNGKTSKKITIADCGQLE
- Assay summary: Ras-Raf disruption/FRET/MOA assay, NRAS G12C
- Format: biochemical

Below: 8 compounds and their reported IC50.
>>> observed_measurement("CCn1c(-c2cnccc2COC)c2c3cc(ccc31)-c1cc(O)cc(c1)C[C@H](NC(=O)[C@H](C(C)C)N(C)C(=O)CN(C)C(=O)[C@@H]1N[C@@H]1C)C(=O)N1CCC[C@H](N1)C(=O)OCC(C)(C)C2 [Example 105]")
"10 to 100 nM"
>>> observed_measurement("CCn1c(-c2cccnc2[C@H](C)OC)c2c3cc(ccc31)-c1cc(O)cc(c1)C[C@H](NC(=O)[C@H](C(C)C)N(C)C(=O)[C@@H]1CO[C@H](C)CN1C(=O)[C@@H]1CN1)C(=O)N1CCC[C@H](N1)C(=O)OCC(C)(C)C2 [Example 249]")
"< 10 nM"
>>> observed_measurement("CCn1c(-c2cccnc2[C@H](C)OC)c2c3cc(ccc31)-c1cc(O)cc(c1)C[C@H](NC(=O)[C@H](C(C)C)N(C)C(=O)[C@]13C[C@H]1CCN3C(=O)[C@H]1CN1)C(=O)N1CCC[C@H](N1)C(=O)OCC(C)(C)C2 [Example 244]")
"10 to 100 nM"
>>> observed_measurement("CCn1c(-c2cnccc2COC)c2c3cc(ccc31)-c1cc(O)cc(c1)C[C@H](NC(=O)[C@H](C(C)C)N(C)C(=O)CN(C)C(=O)[C@H]1N[C@@H]1c1ccc(OC)cc1)C(=O)N1CCC[C@H](N1)C(=O)OCC(C)(C)C2 [Example 97]")
"10 to 100 nM"
>>> observed_measurement("CCn1c(-c2cccnc2COC)c2c3cc(ccc31)-c1cc(O)cc(c1)C[C@H](NC(=O)[C@H](C(C)C)N(C)C(=O)CCNC(=O)NCCCl)C(=O)N1CCC[C@H](N1)C(=O)OCC(C)(C)C2 [Example 25]")
"> 10000 nM"
>>> observed_measurement("CCn1c(-c2cnccc2COC)c2c3cc(ccc31)-c1cc(O)cc(c1)C[C@H](NC(=O)[C@H](C(C)C)N(C)C(=O)CN(C)C(=O)[C@@H]1N[C@@H]1C1CC1)C(=O)N1CCC[C@H](N1)C(=O)OCC(C)(C)C2 [Example 103]")
"10 to 100 nM"
>>> observed_measurement("CCn1c(-c2cnccc2COC)c2c3cc(ccc31)-c1cc(O)cc(c1)C[C@H](NC(=O)[C@H](C(C)C)N(C)C(=O)CN(C)C(=O)[C@H]1N[C@H]1c1ccc(OC)cc1)C(=O)N1CCC[C@H](N1)C(=O)OCC(C)(C)C2 [Example 93]")
"10 to 100 nM"
>>> observed_measurement("CCn1c(-c2cccnc2[C@H](C)OC)c2c3cc(ccc31)-c1cc(O)cc(c1)C[C@H](NC(=O)[C@H](C(C)C)N(C)C(=O)[C@@H]1CO[C@H](C)CN1C(=O)[C@H]1CN1)C(=O)N1CCC[C@H](N1)C(=O)OCC(C)(C)C2 [Example 248]")
"10 to 100 nM"

Task: Entry CCn1c(-c2cnccc2COC)c2c3cc(ccc31)-c1cc(O)cc(c1)C[C@H](NC(=O)[C@H](C(C)C)N(C)C(=O)CN(C)C(=O)[C@H]1N[C@H]1C(=O)OC)C(=O)N1CCC[C@H](N1)C(=O)OCC(C)(C)C2 [Example 51] has what IC50?
Result: 100 to 1000 nM

Task: Query: IC50; subject: CCn1c(-c2cnccc2COC)c2c3cc(ccc31)-c1cc(O)cc(c1)C[C@H](NC(=O)[C@H](C(C)C)N(C)C(=O)CN(C)C(=O)[C@@H]1N[C@H]1c1ccccc1)C(=O)N1CCC[C@H](N1)C(=O)OCC(C)(C)C2 [Example 11]
Result: 10 to 100 nM
